Test system: Exiguobacterium undea (DSM14481)
Assay: Lysozyme activity turbidity assay (optical density drop at 540 nm)
Assay type: biochemical, Exiguobacterium undae
Conditions: OD drop assay
READOUT: Lysozyme activity against Exiguobacterium undea (in words)

[
  {
    "MOLECULE": "SEQ ID NO: 300: mature GH24 lysozyme from Metarhizium sp. XZ2431 (protein, listed as Metarhizium sp., mat_peptide (1)..(247), mature GH24 lysozyme from Metarhizium sp; XZ2431) YPVSADSLNCRAEPNTSSAIKTTYKKGEDVKISCQTEGPSINGNTIWDKTQDGCYVADYYVKTGSSGYVTGKCGGSSPPSGSGFCKTVNKAGLDLITKWEGFVSSPRGDPIGLPTVGYGHLCQKKGCAEVKYKFPLTKATALQLLNDDLPKYTGCLGKLLNSKVKLNDNQWAALTSWVFNVGCGNAQSSSLVRRLNNGENPNTVAPSELPKWKMAGGKVLEGLVKRRADEVRLFKVSSSKGAFPKCQ",
    "RESULT": "good activity"
  },
  {
    "MOLECULE": "SEQ ID NO: 257: mature GH24 lysozyme from Trichophaea saccata, comprising a GH24 domain and a lysozyme enhancing domain (LED) (protein, listed as Trichophaea saccata, mat_peptide (1)..(245)) YPVKTDLHCRSSPSTSASIVRTYSSGTEVQIQCQTTGTSVQGSNVWDKTQHGCYVADYYVKTGHSGIFTTKCGSSSGGGSCKPPPINAATVALIKEFEGFVPKPAPDPIGLPTVGYGHLCKTKGCKEVPYSFPLTQETATKLLQSDIKTFTSCVSNYVKDSVKLNDNQYGALASWAFNVGCGNVQTSSLIKRLNAGENPNTVAAQELPKWKYAGGKVMPGLVRRRNAEVALFKKPSSVQAHPPKC",
    "RESULT": "good activity"
  },
  {
    "MOLECULE": "SEQ ID NO: 294: mature GH24 lysozyme from Chaetomium sp. ZY287 (protein, listed as Chaetomium sp., mat_peptide (1)..(249), mature GH24 lysozyme from Chaetomium sp; ZY287) YKISGSSVNCRSGPGTNYPVKKTYANGDEVTISCQTTGTNVEGNNIWDKTQHGCYVADKYVKTGKDGFVTKKCGSSGGGGGGKTCKAPKSNAATVDLIASFEGFRANIYTDATGHPTVGYGHMCTKSRCAEVKYKIPLSKADGKKLLADDMAKFEKCIKEMLNSKAKLNLNQYGALVSWSFNVGCGAAKGSQLVSRLNKGENPNTVLSNELPKWVHGNGKVLPGLVRRRNAEIALAKKSGSGAALPVKC",
    "RESULT": "good activity"
  }
]
